# solubility kinetic values compiled below
Details: buffer; pH 7.4; 200.0 µM

A selection of reference data follows.
INSERT INTO assay_data (compound, measurement_kind, experimental_result) VALUES
  ('CCN(CC)CCN=Cc1c(O)n(Cc2ccccc2)c(=O)[nH]c1=O', 'solubility kinetic', '> 51.7 µg/mL'),
  ('CC(=O)Nc1ccc(N/C=C2/CCCC2=O)cc1', 'solubility kinetic', '> 36.6 µg/mL'),
  ('COc1ccc(C(=O)COc2ncnc3cc(Cl)ccc23)cc1', 'solubility kinetic', '< 0.4 µg/mL'),
  ('CN1CCOCCOc2ccccc2OCCOCC1', 'solubility kinetic', '> 42.2 µg/mL'),
  ('O=C(c1cccc([N+](=O)[O-])c1)c1ccccn1', 'solubility kinetic', '> 34.2 µg/mL');

Challenge: Supply measured solubility kinetic of CN(C)c1nc(N(C)C)nc(N2CC(CCl)OC2=N)n1 (stereo unspecified) in your reply.
Response given: > 45 µg/mL

Challenge: Supply measured solubility kinetic of Cc1cc(OCC(=O)Nc2ccccc2C)no1 in your reply.
Response given: > 36.9 µg/mL

Challenge: Supply measured solubility kinetic of Cc1ccc(CNC(=O)c2cc(=O)c3cc(C)ccc3o2)cc1 in your reply.
Response given: < 0.7 µg/mL

Challenge: Supply measured solubility kinetic of COc1ccc(NC(=O)COC(=O)C23CC4CC(CC(NC(C)=O)(C4)C2)C3)cc1S(=O)(=O)N1CCOCC1 in your reply.
Response given: > 82.4 µg/mL

Challenge: Supply measured solubility kinetic of CSc1ncccc1C(=O)OCC(=O)NC(C)C in your reply.
Response given: > 40.2 µg/mL

Challenge: Supply measured solubility kinetic of CC(C)(Oc1ccc(Cl)cc1)C(=O)N1CCN(C(=O)c2ccco2)CC1 in your reply.
Response given: > 56.5 µg/mL

---

Settings: buffer; pH 7.4; 200.0 µM
# solubility kinetic values compiled below

A selection of reference data follows.
INSERT INTO measurements (sample_smiles, measurement_kind, experimental_result) VALUES
  ('Brc1cccc(CNCc2ccncc2)c1', 'solubility kinetic', '> 41.6 µg/mL'),
  ('COc1ccc(NC(=S)NCc2ccccc2Cl)c(OC)c1', 'solubility kinetic', '< 0.4 µg/mL');

Challenge: Supply measured solubility kinetic of CC(=O)N1CCN(c2ccc([N+](=O)[O-])c(NCc3cccnc3)c2)CC1 in your reply.
Response given: > 53.3 µg/mL

---

Conditions: buffer; pH 7.4; 200.0 µM
# solubility kinetic values compiled below

INSERT INTO measurements (compound, measurement_kind, experimental_result) VALUES
  ('Cc1ccc(NS(=O)(=O)c2c(F)cc(F)c(Cl)c2F)cc1S(=O)(=O)N1CCOCC1', 'solubility kinetic', '> 72.7 µg/mL'),
  ('CNC(=O)Nc1cccc(-c2cc(-c3c(Cl)cccc3Cl)no2)c1', 'solubility kinetic', '< 0.3 µg/mL');

// moving on: another record for solubility kinetic
Challenge: Supply measured solubility kinetic of Cc1ccc2c(c1)C1C[N+](C)(CC(=O)c3ccc(Cl)cc3Cl)CCC1N2C(=O)c1ccc(F)cc1.[Cl-] (stereo not drawn) in your reply.
Response given: > 82.2 µg/mL

---

Details: buffer; pH 7.4; 200.0 µM
# solubility kinetic values compiled below

INSERT INTO measurements (compound, experimental_result) VALUES
  ('COc1ccccc1-c1noc(CCCC(=O)N2CCOCC2)n1', '> 49.7 µg/mL'),
  ('Cc1cc(=O)n(Cc2ccccc2)c2ccccc12', '> 37.4 µg/mL'),
  ('Cc1c(Br)ccc(NC(=O)COc2ccccc2C(N)=O)c1C', '< 0.4 µg/mL'),
  ('CC(=O)N/C(=C\c1ccccc1)C(=O)NC(C)C(=O)O (stereo not given)', '> 41.4 µg/mL');

// moving on: another record for solubility kinetic
Challenge: Supply measured solubility kinetic of Cc1cccc(N2N=C(C(=O)OCC(=O)c3ccccc3)CCC2=O)c1 in your reply.
Response given: > 52.6 µg/mL

---

Settings: buffer; pH 7.4; 200.0 µM
# solubility kinetic values compiled below

A selection of reference data follows.
INSERT INTO assay_data (compound, experimental_result) VALUES
  ('O=C(Nc1nccs1)C1CC(=O)N(c2ccc(F)cc2)C1 (centres undefined)', '9.7 µg/mL'),
  ('Cc1noc(C)c1C(=O)OC(C)C(=O)N1CCc2ccccc21 (centres undefined)', '6 µg/mL'),
  ('O=C(Cc1c(Cl)cccc1Cl)OCc1ccccn1', '40.1 µg/mL'),
  ('CC(=O)Nc1cc([As](=O)(O)O)ccc1O', '> 41.3 µg/mL'),
  ('O=C1NC(=O)N(c2ccccc2)C1=O', '> 28.5 µg/mL'),
  ('CC(=O)C1=C(O)C(=O)N(c2ccc(O)cc2)C1c1ccc([N+](=O)[O-])cc1 (centres undefined)', '> 53.1 µg/mL');

Challenge: Supply measured solubility kinetic of Cc1ccc[n+](CC(=O)N2CCCCC2)c1C.[Br-] in your reply.
Response given: > 47 µg/mL

Challenge: Supply measured solubility kinetic of CCOC(=O)c1ccc(NC(=O)c2cc(F)c(F)cc2Cl)cc1 in your reply.
Response given: < 0.7 µg/mL

Challenge: Supply measured solubility kinetic of COc1ccc(CC(=O)Nc2cc(C)ccc2O)cc1OC in your reply.
Response given: > 45.2 µg/mL

Challenge: Supply measured solubility kinetic of CCCc1nc2ccc(N)cc2c(=O)n1Cc1ccccc1Cl in your reply.
Response given: 13 µg/mL

---

Conditions: buffer; pH 7.4; 200.0 µM
# if value of solubility kinetic reaches 30 µg/mL, tag Met; if it stays below, tag Not met

Check out these entries, answers already filled in.
INSERT INTO measurements (molecule, category) VALUES
  ('CCCCC(CC)CNC(=O)Cn1c(=O)[nH]c2ccsc2c1=O (stereo unspecified)', 'Met'),
  ('CCOC(=O)C1=C(C)N=C2SC(C)C(=O)N2C1c1ccccc1 (stereo unspecified)', 'Met'),
  ('CCc1c(C)nc(SCC(=O)NC2CCCC2)[nH]c1=O', 'Met'),
  ('Cc1ccc(S(=O)(=O)N2CCOCC2)cc1C(=O)N1CC(C)CC(C)C1 (stereo unspecified)', 'Met'),
  ('O=C(c1cccc(F)c1)N1CCC2(CC1)NCCc1[nH]cnc12', 'Met'),
  ('Cc1ccc2oc(=O)n(CC(=O)OCCC(C)C)c2c1', 'Not met'),
  ('Cc1ccccc1NC(=S)N(Cc1cccs1)C1CCCC1', 'Not met'),
  ('CCN(C(=O)N1CCOCC1)c1ccccc1', 'Met'),
  ('CCC(C(=O)OCC(=O)N1C(C)CCCC1C)c1ccccc1 (stereo unspecified)', 'Met'),
  ('O=C1C2C3CC(C2C(=O)N1c1cccc(Cl)c1)[C@H](O)C3O (stereo partly specified)', 'Met');

Challenge: Given the entry O=C(O)c1cc(S(=O)(=O)N2CCCCC2)ccc1Cl , answer whether its solubility kinetic meets or surpasses 30 µg/mL.
Response given: Met

Challenge: Given the entry S=c1nc(-c2ccccc2)n(Cc2cccnc2)c2c1CCCC2 , answer whether its solubility kinetic meets or surpasses 30 µg/mL.
Response given: Met

Challenge: Given the entry COc1ccc(NC(=O)CSc2nnc(N)s2)c([N+](=O)[O-])c1 , answer whether its solubility kinetic meets or surpasses 30 µg/mL.
Response given: Met

---

# solubility kinetic values compiled below
Settings: buffer; pH 7.4; 200.0 µM

INSERT INTO results (compound, experimental_result) VALUES
  ('O=C(Cn1cc([N+](=O)[O-])cn1)N1CCN(c2ccccc2)CC1', '> 47.3 µg/mL'),
  ('O=C(CCNS(=O)(=O)c1ccccc1)N1CCCCCC1', '> 46.6 µg/mL'),
  ('Cc1cc(C)cc(CC2CC(=O)N(c3ccc([N+](=O)[O-])cc3)C2=O)c1 (stereo unspecified)', '< 0.4 µg/mL');

Challenge: Supply measured solubility kinetic of CCOC(=O)c1nc(Nc2ccccc2C)c2ccccc2n1 in your reply.
Response given: > 46.1 µg/mL

Challenge: Supply measured solubility kinetic of CC(c1ccccc1)n1cnc2ccccc2c1=O (stereo unspecified) in your reply.
Response given: > 37.5 µg/mL

Challenge: Supply measured solubility kinetic of O=C(Cc1ccccc1)Nc1ccc(NC(=O)c2cccs2)cc1 in your reply.
Response given: < 0.4 µg/mL

Challenge: Supply measured solubility kinetic of Cc1ccc(S(=O)(=O)NC(C)(C)CSc2ncccn2)cc1 in your reply.
Response given: > 50.6 µg/mL

Challenge: Supply measured solubility kinetic of Cc1cc(NC(=O)c2ccno2)no1 in your reply.
Response given: > 29 µg/mL

Challenge: Supply measured solubility kinetic of CC(C)(C)N=C(NS(=O)(=O)c1cccs1)c1ccccc1 in your reply.
Response given: > 48.4 µg/mL

Challenge: Supply measured solubility kinetic of CN(C(=O)CSc1nc2ccc(Cl)cc2[nH]1)C1CCS(=O)(=O)C1 (stereo unspecified) in your reply.
Response given: > 56.1 µg/mL

Challenge: Supply measured solubility kinetic of Cc1oc(C)c(S(=O)(=O)NCc2cccs2)c1C(=O)O in your reply.
Response given: > 47.3 µg/mL
